Target: inactive BoNT/G (BoNT/Gi) (Clostridium botulinum) (UniProt Q60393)
Sequence (Q60393 whole entry): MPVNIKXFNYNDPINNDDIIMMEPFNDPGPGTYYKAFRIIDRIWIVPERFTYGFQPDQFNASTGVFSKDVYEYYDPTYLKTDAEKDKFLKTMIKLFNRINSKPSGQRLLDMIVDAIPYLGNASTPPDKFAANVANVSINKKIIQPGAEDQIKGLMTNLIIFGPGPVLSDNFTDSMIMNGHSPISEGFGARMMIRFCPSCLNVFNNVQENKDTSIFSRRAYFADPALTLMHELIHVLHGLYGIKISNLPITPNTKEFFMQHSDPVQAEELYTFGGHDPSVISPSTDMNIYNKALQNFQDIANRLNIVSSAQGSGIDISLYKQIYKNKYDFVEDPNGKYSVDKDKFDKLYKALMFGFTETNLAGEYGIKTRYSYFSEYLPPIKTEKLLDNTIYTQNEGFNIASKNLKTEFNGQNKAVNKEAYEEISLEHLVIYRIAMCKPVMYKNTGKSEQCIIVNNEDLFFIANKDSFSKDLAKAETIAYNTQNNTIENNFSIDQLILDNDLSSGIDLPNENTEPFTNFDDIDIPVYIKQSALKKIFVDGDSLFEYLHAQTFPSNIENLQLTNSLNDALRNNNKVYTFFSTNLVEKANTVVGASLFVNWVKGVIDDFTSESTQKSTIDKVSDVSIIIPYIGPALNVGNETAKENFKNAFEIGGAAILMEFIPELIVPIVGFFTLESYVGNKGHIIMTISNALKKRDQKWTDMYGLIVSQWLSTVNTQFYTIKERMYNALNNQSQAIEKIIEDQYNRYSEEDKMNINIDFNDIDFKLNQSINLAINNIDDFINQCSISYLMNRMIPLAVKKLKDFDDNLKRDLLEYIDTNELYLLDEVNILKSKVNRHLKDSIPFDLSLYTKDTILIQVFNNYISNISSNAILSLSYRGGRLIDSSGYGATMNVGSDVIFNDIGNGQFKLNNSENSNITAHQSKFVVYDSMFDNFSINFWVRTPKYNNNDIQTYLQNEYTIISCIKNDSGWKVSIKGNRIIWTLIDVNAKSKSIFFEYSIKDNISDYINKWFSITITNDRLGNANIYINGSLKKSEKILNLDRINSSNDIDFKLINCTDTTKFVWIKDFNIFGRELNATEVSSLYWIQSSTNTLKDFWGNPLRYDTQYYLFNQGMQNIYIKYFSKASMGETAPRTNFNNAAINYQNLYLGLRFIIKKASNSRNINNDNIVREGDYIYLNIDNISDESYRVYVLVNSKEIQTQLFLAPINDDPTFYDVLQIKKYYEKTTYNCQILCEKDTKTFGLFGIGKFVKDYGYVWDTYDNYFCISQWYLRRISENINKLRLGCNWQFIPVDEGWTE
Experiment: flow cytometry, scFv on yeast
measurement-name: pKd
Give bare numbers, as −log10 of the molar value.

Q) Bench note: what pKd did hu6G6 variant A3.1 scFv (scFv) scFv: QVQLVQSGAEVKKPGASVKLSCKASGFNIKDTYMHWVRQAPGQGLEWIGRIDPANGNTKYDPKFQGRATITAGTSINTAYLELSRLRSDDTAVYYCASGPNYYGTTWFAYWGQGTTVTVSSVDLKSGGSTSGSGKPGSGEGSSGSAREIVLTQSPSTLSASVGDRVTITCRASHGISNYLAWYQQKPGRAPKLLIYKASTLHIGVPSRFSGSGSGTEFALTISSLQPDDFSTYYCQQYNSYLPHTFGQGTRLEIK show?
A) 8.19
